Exercise: state measured PD-1/PD-L1 blockage (IC50, µg/ml) for each of the binders provided.
Target: PD-1 expressed on cells (human, UniProt Q15116 25-288)
Sequence (Q15116 25-288 limits assumed): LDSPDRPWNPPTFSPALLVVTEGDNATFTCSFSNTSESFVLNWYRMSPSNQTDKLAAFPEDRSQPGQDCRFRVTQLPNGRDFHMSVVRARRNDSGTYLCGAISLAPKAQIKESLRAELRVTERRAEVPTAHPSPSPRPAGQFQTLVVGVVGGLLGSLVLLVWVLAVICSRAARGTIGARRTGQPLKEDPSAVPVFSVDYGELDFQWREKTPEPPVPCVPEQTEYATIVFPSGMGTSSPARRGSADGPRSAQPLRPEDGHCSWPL
Test: cell-based or functional assay
Answers are plain numbers, in µg/mL.

For orientation, consider the following solved cases.
A3 (antibody, V domains shown, Tested as full-length mAb expressed in CHO cells; also called antibody A3; L3H3) VH: QVQLVESGGGEVQPGRSLRLSCAASGFTFSDYGMHWVRQAPGKGLEWVAVIWYDGSNKYYADSVKGRFTISRDNSKNTLYLQMNSLRAEDTAVYYCAGGGSYWGDYWGQGTLVTVSS VL: DIQMTQSPSSLSASVGDRVTITCRASQGIRNELGWYQQKPGKAPKRLIYAASSLQSGVPSRFSGSGSGTEFTLTISSLQPEDFATYYCLQHYIYPWTFGQGTKVEIKR : 1.34
A6 (antibody, V domains shown, Tested as full-length mAb expressed in CHO cells; also called antibody A6; L6H6) VH: QVQLVESGGGVVQPGRSLRLSCAASGFTFSSYGMHWVRQAPGKGLEWVAVIWYDGSNKYYADSVKGRFTISRDNSKNTLYLQMNSLRAEDTAVYYCAGGGNYWGDFWGQGTLVTVSS VL: DIQMTQSPSSLSASVGDRVTITCRASQGIRNDLGWYQQKPGKAPKRLLYAASNLQLGVPSRFSGSGSETEFTLTISSLQPEDFATYYCLQHNSYPWTFGQGTKVEIKR : 1.12

Note: attention shifts to another entry.
Bench note: what PD-1/PD-L1 blockage (IC50, µg/ml) did A11 (antibody, V domains shown, Tested as full-length mAb expressed in CHO cells; also called antibody A11; L11H11) VH: QVQLVQSGAEVKKPGASVKVSCRASGYTFTNYGISWVRQAPGQGLEWMGWISVYSDNTHYPQKLQGRVTMTTDTSTSTAYMELRSLRSDDTAVYYCARDGSHGDYYYVMDLWGQGTTVTVSS VL: DIQMTQSPSSLSASVGDSITITCRASQGISSWLAWYQQKPEKAPKSLIYAASSLQSGVPSRFSGSGSGTDFTLTISSLQPEDFATYYCQQFNSYPYTFGQGTKLEIK show? 1.31

meta.source: patent US20220064302A1
